target: CIB1 and αIIb interaction (CIB1-GST : F-αIIb peptide) (Homo sapiens, UniProt Q99828); construct: made in house; host or cells: BL-21 plus RIL cells (E. coli); experiment: FP assay, 1536-well qHTS format (primary and confirmatory screen); format: binding; conditions: qHTS primary screen hits, Table S2; read-out: IC50
reported_metric: pIC50
Remember the convention: pIC50 equals -log10 of concentration in molar.

{"columns": ["molecule_smiles", "target_of_assay", "pIC50"],
 "data": [
  ["Cc1ccnc(NC(=S)N2CC[C@@H](Nc3cccc(C(F)(F)F)c3)C2)c1", "CIB1 and αIIb interaction (CIB1-GST : F-αIIb peptide) (Homo sapiens, UniProt Q99828)", 4.10]
]}

Now take the following compound into account.
Prompt: Could you share which pIC50 value was measured for CO[C@H](C(=O)[C@@H](O)[C@@H](C)O)[C@@H]1Cc2cc3cc(C[C@H]4C[C@H](O[C@H]5C[C@@H](O)[C@H](O)[C@@H](C)O5)[C@@H](O)[C@@H](C)O4)c(C)c(O)c3c(O)c2C(=O)[C@H]1O[C@@H]1C[C@H](O[C@@H]2C[C@H](O[C@@H]3C[C@](O)(CO)[C@@H](O)[C@H](C)O3)[C@@H](O)[C@H](C)O2)[C@@H](O)[C@H](C)O1 ?
Completion: 4.62

* * *

target: CIB1 and αIIb interaction (CIB1-GST : F-αIIb peptide) (Homo sapiens); construct: made in house; host or cells: BL-21 plus RIL cells (E. coli); test: FP assay, 1536-well qHTS format (primary and confirmatory screen); format: binding; conditions: confirmatory screen; read-out: CONFIRMATORY SCREEN IC50
reported_metric: pIC50
The read-out pIC50 is expressed as -log10 of concentration in moles per litre.

{"columns": ["compound", "pIC50"],
 "data": [
  ["O=C(O)c1cccc(CN2C(=O)/C(=C(\\c3ccccc3)c3ccc(Cl)cc3)c3ccccc32)c1 [NCGC00378823-01]", 4.35],
  ["CN1CCCN=C1/C=C/c1cccs1 [NCGC00094552-04]", 4.30],
  ["Cc1ccc(S(=O)(=O)Nc2cnccc2C(=O)Nc2nc(-c3cccc(C)c3)cs2)cc1.O=C(O)C(F)(F)F [NCGC00343524-02]", 4.70],
  ["Cc1ccc(-c2cc(-c3nn(-c4nc(C(=O)O)cs4)c(CC4CC4)c3Cc3ccc(S(N)(=O)=O)c(F)c3)ccc2F)o1 [NCGC00389082-01]", 4.55],
  ["Nc1c(Cc2ccc(S(N)(=O)=O)cc2)c(-c2cccc(-c3ccccc3)c2)nn1-c1nc(C(=O)O)cs1.O=C(O)C(F)(F)F [NCGC00356752-02]", 4.40]
]}

Prompt: Need pIC50 of O=C(Nc1nc(-c2ccccc2)cs1)c1ccncc1NS(=O)(=O)c1cccc2cccnc12.O=C(O)C(F)(F)F [NCGC00344938-01] , thanks.
Completion: 4.45

Prompt: // next record CCCC1CCN(C(=O)COC(=O)c2ccc(S(C)(=O)=O)c([N+](=O)[O-])c2)CC1 [NCGC00188533-01]
Completion: 5.60

* * *

molecular target: CIB1 and αIIb interaction (CIB1-GST : F-αIIb peptide) (Homo sapiens); construct: made in house; host or cells: BL-21 plus RIL cells (E. coli); test: FP assay, 1536-well qHTS format (primary and confirmatory screen); format: binding; details: qHTS primary screen hits, Table S2; negative = inhibition
reported_metric: Efficacy (%)
Give the number; % is assumed, so skip it.

Worked set:
{"columns": ["molecule", "experimental_value"],
 "data": [
  ["COCc1ccc(-c2nn(Cc3ccccc3)c3ccccc23)o1 [NCGC00479273-01]", -37],
  ["O=C(O)C(F)(F)F.O=C1CCCC2=C1C(c1cccnc1Br)N=C(Nc1nc3ccccc3o1)N2 (centres unmarked) [NCGC00189281-01]", -26]
]}

Turning now to a further record.
Prompt: Item Nc1nc2[nH]cnc2c(=S)[nH]1 [NCGC00263442-01] with CIB1 and αIIb interaction (CIB1-GST : F-αIIb peptide) (Homo sapiens) - Efficacy (%)?
Completion: -56

* * *

target: GST-CIB1 : F-scrambled peptide (Homo sapiens); construct: made in house; host or cells: BL-21 plus RIL cells (E. coli); assay: FP scrambled-peptide counter screen, 1536-well format; type: binding; settings: scrambled-peptide counterscreen
reported_metric: COUNTERSCREEN Efficacy (%)
The figure you give is taken to be in %; do not add the unit.

These solved cases illustrate the format of a correct answer.
{"columns": ["molecule", "target_of_assay", "COUNTERSCREEN Efficacy (%)"],
 "data": [
  ["NS(=O)(=O)c1ccc(Cc2c(-c3cccc(-c4ccccc4F)c3)nn(-c3nc(C(=O)O)cs3)c2O)cc1.O=C(O)C(F)(F)F", "GST-CIB1 : F-scrambled peptide (Homo sapiens)", -32],
  ["Cc1ccc(-c2csc(NC(=O)c3ccncc3NS(=O)(=O)c3ccc(C)cc3)n2)cc1.O=C(O)C(F)(F)F", "GST-CIB1 : F-scrambled peptide (Homo sapiens)", 26],
  ["CN1CCCN=C1/C=C/c1cccs1.O=C(O)c1cc2ccccc2c(Cc2c(O)c(C(=O)O)cc3ccccc23)c1O", "GST-CIB1 : F-scrambled peptide (Homo sapiens)", 0]
]}

Prompt: Value lookup for COUNTERSCREEN Efficacy (%); key = Cc1ccc(C)n1-c1cccc(C(=O)O)c1.O=C(O)C(F)(F)F
Completion: -11

* * *

Biological target: CIB1 and αIIb interaction (CIB1-GST : F-αIIb peptide) (Homo sapiens, UniProt Q99828)
Construct: made in house; host or cells: BL-21 plus RIL cells (E. coli)
Sequence (Q99828 1-191): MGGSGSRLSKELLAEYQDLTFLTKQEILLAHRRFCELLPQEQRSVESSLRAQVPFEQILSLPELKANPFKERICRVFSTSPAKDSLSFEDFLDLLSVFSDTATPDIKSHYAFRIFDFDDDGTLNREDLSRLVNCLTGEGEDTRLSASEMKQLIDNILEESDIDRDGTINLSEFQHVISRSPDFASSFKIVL
Test: FP assay, 1536-well qHTS format (primary and confirmatory screen)
Assay type: binding
Conditions: confirmatory screen, qHTS curve class; negative sign = inhibitory curve
Below, each entry is listed with its recorded Curve Class (confirmatory screen).
Just the number, please.

The cases that follow already have their Curve Class (confirmatory screen) on record.
{"columns": ["compound", "Curve Class (confirmatory screen)"],
 "data": [
  ["CCNC(=O)c1ccc(-c2ccc3ncnc(N4CCOCC4)c3c2)o1.O=C(O)C(F)(F)F", -1.4],
  ["CCN1CCN(c2ccc(Nc3ccc(-c4ccc(C(N)=O)cc4)n4ncnc34)cc2)CC1.O=C(O)C(F)(F)F", -2.4],
  ["CC1=NN(c2ccc(C)c(C)c2)C(=O)/C1=N/Nc1cccc(-c2cccc(C(=O)O)c2)c1O", -2.2],
  ["FC(F)(F)c1cccc(N2CCN(C(=S)Nc3nccc4cccnc34)CC2)c1.O=C(O)C(F)(F)F", -2.2],
  ["O=C(O)C(F)(F)F.Oc1cccc2c(-c3nnn[nH]3)ccnc12", -1.4],
  ["CC(C)C(=O)OCc1ccc(-c2nn(Cc3ccccc3)c3ccccc23)o1", -2.4],
  ["COc1ccc2c(c[n+](C)c3c4cc5c(cc4ccc23)OCO5)c1OC.[Cl-]", -1.4],
  ["C=C(CC)C(=O)c1ccc(OCC(=O)O)c(Cl)c1Cl", -2.4]
]}

Prompt: Need Curve Class (confirmatory screen), item N#Cc1ccc(NS(=O)(=O)c2ccc(Nc3nc(-c4ccccc4)cs3)cc2)cc1.O=C(O)C(F)(F)F
Completion: -2.1

Prompt: Now try O=c1nc(-c2ccccn2)sc2ccccc12 .
Completion: -2.4

Prompt: Similarly, C=C1C(=O)[C@@]23C(CC[C@@H]1[C@H]2O)[C@@]12CO[C@]3(O)[C@@H](O)[C@@H]1C(C)(C)CC[C@@H]2O (stereo partly shown) ?
Completion: -1.1

Prompt: And the next one, CCC(=O)NC(c1cccs1)c1cc(Br)c2cccnc2c1O (stereo not shown) ?
Completion: -2.4

Prompt: Lookup Cc1ccc(C)n1-c1sccc1C(=O)O
Completion: -1.1

Prompt: Another compound to look at: Nc1nc2c(s1)C(c1ccc(F)cc1F)CC(=O)N2 (stereo not shown)
Completion: -2.4

Prompt: How about Cc1ccccc1C(=O)N1CCc2cc(-c3nc(NC(=O)Cc4ccc(OCCOCCOCCN)cc4)sc3C)ccc21.O=C(O)C(F)(F)F ?
Completion: -1.2

Prompt: Next: CC1(C)C=CN2C(=O)C3=CCCN3C(=O)[C@@H]2C[C@@]12Nc1ccccc1C2=O
Completion: -2.2

* * *

target: CIB1 and αIIb interaction (CIB1-GST : F-αIIb peptide) (Homo sapiens, UniProt Q99828); construct: made in house; host or cells: BL-21 plus RIL cells (E. coli); assay: FP assay, 1536-well qHTS format (primary and confirmatory screen); assay type: binding; settings: qHTS primary screen hits, Table S2; read-out: IC50
Listed next: entries and their corresponding log10 IC50.
All values: base-10 log of IC50 in µM.

Solved cases below.
{"columns": ["compound", "log10 IC50"],
 "data": [
  ["COc1ccccc1Nc1cc2ccccc2c(O)n1", 1.70],
  ["O=C(O)C(F)(F)F.O=C1Nc2ccccc2/C1=N/NC(=S)NCc1ccccc1", 0.90],
  ["Cc1cc(SCc2sc(-c3ccc(Cl)c(Cl)c3)nc2C)ccc1OCc1nnn[nH]1.O=C(O)C(F)(F)F", 1.25]
]}

Prompt: Using the record for Cc1ccc(N[S+](=O)([O-])c2cc3c(cc2N[C@@H](C)CO)NC(=O)CC3)cc1N[C@@H](C)CO , report its log10 IC50.
Completion: 1.85

Prompt: O=C(O)C(F)(F)F.O=C(O)c1csc(-n2nc(-c3ccc(F)c(Cc4ccccc4)c3)cc2O)n1 ?
Completion: 1.90

Prompt: Okay, and CC(OC(=O)c1ccc(S(C)(=O)=O)c([N+](=O)[O-])c1)C(=O)NC1C2CC3CC(C2)CC1C3 (centres unmarked) ?
Completion: 0.26

Prompt: Ok, now Nc1nc2[nH]cnc2c(=S)[nH]1
Completion: 1.90

Prompt: Same read-out for CCN(CC)C(=S)SSC(=S)N(CC)CC ?
Completion: 1.55

Prompt: Ok, now CC(C)=CCC1C(=O)N(c2ccccc2)N(c2ccccc2)C1=O
Completion: 1.70

Prompt: What about O=C(NC1=CC(=O)[C@H]2O[C@H]2C1=O)c1ccccc1O ?
Completion: 1.50

Prompt: Same again, this time with O=C(O)C(F)(F)F.O=C1c2ccccc2NC(c2ccc(-c3cccc([N+](=O)[O-])c3)o2)N1O (centres unmarked)
Completion: 1.75

Prompt: Field entry: O=C(O)C(F)(F)F.Oc1cccc2c(-c3nnn[nH]3)ccnc12
Completion: 0.54

Prompt: Now give it for O=C(O)c1ccccn1 too.
Completion: 1.65

Prompt: Another compound: C[C@H](O)C(=O)C1=Nc2c(nc(N)[nH]c2=O)NC1
Completion: 1.55

Prompt: Another compound to check: COc1ccc(-n2ncc3c2CCCC3NC(=O)c2ccccc2F)cc1.O=C(O)C(F)(F)F (centres unmarked)
Completion: 1.60

Prompt: And what about the compound CC1=C(C(=O)Nc2ccc(C(=O)O)cc2)C(c2ccccc2Cl)N=C(Nc2nc3ccccc3o2)N1.O=C(O)C(F)(F)F (centres unmarked) ?
Completion: 1.70

Prompt: Similarly, O=C(Nc1nc(-c2ccccc2)cs1)c1ccncc1NS(=O)(=O)c1ccc(Cl)cc1.O=C(O)C(F)(F)F ?
Completion: 1.73
